- Test system: 786-0 renal
- test-method-notes: NCI tumour cell line growth inhibition, 48 h
endpoint-label: TGI

>>> assay_value("NCCNc1cccc2ccccc12")
"> 100 µM"
>>> assay_value("COc1ccc(C(=O)c2cc3c(OC)c(OC)c(OC)cc3[nH]2)cc1")
"> 100 µM"
>>> assay_value("O=c1cc(N2CCCC2)[nH]c(=O)n1-c1cccc(C(F)(F)F)c1")
"> 100 µM"
>>> assay_value("CC(=O)OC1(C)C(=O)OC1(C)C(C)=O (stereo not drawn)")
"> 100 µM"
>>> assay_value("CSC1=C(C#N)C(=O)N(c2ccc(C)cc2)C(=S)C1C#N (stereo not drawn)")
"> 100 µM"
>>> assay_value("C=CCNC(=O)NC1=CSC2=NC(=O)C3(NN12)c1ccccc1-c1ccccc13")
"> 10 µM"
>>> assay_value("CC(C)NC(=O)OCc1c(COC(=O)NC(C)C)c(-c2ccc(Cl)cc2)n2c1CCC2")
"8.68 µM"
>>> assay_value("COC(=O)C1(F)C(=O)NC(=O)NC1O (stereo not drawn)")
"> 100 µM"
>>> assay_value("Oc1[nH]c2ccccc2c1N=Nc1nc(-c2ccc(Cl)c(Cl)c2)cs1")
"> 100 µM"
>>> assay_value("c1ccc(-c2nc(-c3ccccc3)c(-c3ccccc3)[nH]2)cc1")
"> 100 µM"
>>> assay_value("CN(C)C(=O)c1cc2cnc(Nc3ccc(-c4csc5c(=O)cc(N6CCOCC6)oc45)cc3)nc2n1C1CCCC1")
"4.25 µM"
>>> assay_value("COc1ccc(-n2c3c(c4c(CN5CCOCC5)c(O)ccc42)CCc2ccccc2C3=O)cc1")
"> 100 µM"
>>> assay_value("COc1ccc2c(c1)N=C1CSC(c3ccccc3Cl)N1C2 (stereo not drawn)")
"31.6 µM"
>>> assay_value("CC#CC1/C(=C\\C(=O)OC)CCCC1O (stereo not drawn)")
"> 100 µM"
>>> assay_value("O=c1[nH]cnc2[nH]ncc12")
"> 5000 µM"
>>> assay_value("OC1(c2cc3ccccc3s2)CCCCC1")
"> 100 µM"
>>> assay_value("O=c1[nH]c(=O)n(Cc2ccccc2CO)cc1Sc1ccccc1")
"> 100 µM"
>>> assay_value("Nc1ccccc1N/C=C\\C(=O)C(Cl)(Cl)Cl")
"28.3 µM"

###

- System: HCT-116 colon
- test-method-notes: NCI tumour cell line growth inhibition, 48 h
endpoint-label: TGI

>>> assay_value("CCCNC(C#N)c1ccc(C(C#N)NCCC)cc1 (stereo unspecified)")
"> 100 µM"
>>> assay_value("COc1ccc(N=N/C(=N/NC(=O)c2ccccc2)c2ccc(N(CCC#N)CCC#N)cc2C)cc1")
"> 100 µM"
>>> assay_value("COC(=O)n1c(=O)n(-c2ccccc2)c(=O)n1C(=O)OC")
"> 100 µM"
>>> assay_value("C=C(c1ccc(C(=O)N(C)c2ccccc2N)cc1)C(C)N1C(=O)[C@H]2CCCN2C(=O)c2ccccc21 (stereo partly specified)")
"> 100 µM"
>>> assay_value("CCSC1=C(C)N(C=NC(C)(C)C)CC1")
"> 100 µM"
>>> assay_value("COc1ccc(-c2c(N)n(-c3cccc(C(=O)O)c3)c(=O)c3cc([N+](=O)[O-])ccc23)cc1")
"> 100 µM"
>>> assay_value("CCOC(=O)CNC(=O)C(C)NC(=O)C(NC(=O)CC(c1ncc[nH]1)c1ncc[nH]1)C(C)CC (stereo unspecified)")
"> 100 µM"
>>> assay_value("O=c1[nH]cnc2[nH]ncc12")
"> 5000 µM"
>>> assay_value("Fc1ccc(C2SCc3nc4ccccc4n32)cc1 (stereo unspecified)")
"> 100 µM"
>>> assay_value("COc1cc2cc(C(=O)N3CC(COS(C)(=O)=O)c4c3cc(N)c3ccccc43)[nH]c2c(OC)c1OC (stereo unspecified)")
"> 100 µM"
>>> assay_value("Cc1ccc(N2CCc3c(C)c(C#N)c4nc5ccccc5n4c32)cc1")
"> 100 µM"

###

- Test system: MDA-MB-231 breast
- test-method-notes: NCI tumour cell line growth inhibition, 48 h
endpoint-label: TGI (µM)

>>> assay_value("Cc1ccc(-c2cc(C3=CC(=O)C=CC3=O)n(-c3ccc(S(N)(=O)=O)cc3)n2)cc1")
72.8
>>> assay_value("CCCCc1ccc(Nc2ncc3[nH]cnc3n2)cc1")
30.3
>>> assay_value("Cc1ccc(SC2=CC(=O)c3nc4ccccc4c4ccnc2c34)cc1")
60
>>> assay_value("O=C(c1ccco1)c1c(C(F)(F)F)n([O-])c2ccccc2[n+]1=O")
3.6
>>> assay_value("Cc1cc(C)c(O)c(CN(C)Cc2cc(Cl)cc(Cl)c2O)c1")
12.8

###

In this section we review reported TGI values for a set of molecules.
- Tested on: COLO 205 colon
- test-method-notes: NCI tumour cell line growth inhibition, 48 h
Where a SMILES comes first, the peptide text is derived from it. The star is where a group is joined. Boc = CC(C)(C)OC(=O)*; OBn = c1ccc(CO*)cc1
endpoint-label: TGI

>>> assay_value("COc1ccc(/C(=N/Nc2ccccc2)C(c2ccc(OC)cc2)C2OC(=O)c3ccccc32)cc1 (stereo unspecified)")
"> 100 µM"
>>> assay_value("N#CC1=C(N)NC(=O)NC12Nc1ccccc1S2 (stereo unspecified)")
"> 73.1 µM"
>>> assay_value("C1CCC(OC2CSC2)OC1 (stereo unspecified)")
"> 100 µM"
>>> assay_value("CC(NC(=O)C(NC(=O)OC(C)(C)C)C(C)C)C(=O)N1CCCC1C(=O)NCC(=O)NC(C(=O)NCC(=O)OCc1ccccc1)C(C)C (stereo unspecified) (Boc-VAPGVG-OBn; configuration not given here)")
"> 100 µM"
>>> assay_value("O=c1c2cc(I)ccc2nc(Sc2ncccc2[N+](=O)[O-])n1Cc1ccccc1")
"> 100 µM"
>>> assay_value("O=c1cc(-c2ccccc2)[nH]n1-c1nc2ccccc2[nH]1")
"> 100 µM"

###

Listed here are compounds together with their documented TGI.
- Tested on: SK-OV-3 ovarian
- test-method-notes: NCI tumour cell line growth inhibition, 48 h
endpoint-label: TGI

>>> assay_value("COc1ccc(N=N/C(=N/NC(=O)c2ccccc2)c2ccc(N(CCC#N)CCC#N)cc2C)cc1")
"> 100 µM"
>>> assay_value("O=C1C(=O)N(c2ccc(Cl)cc2Cl)C(=O)C(=O)C1c1nc2ccccc2o1")
"> 100 µM"
>>> assay_value("Cc1sc(/N=C/c2c[nH]c3ccccc23)c(C#N)c1C")
"> 100 µM"
>>> assay_value("CC(=O)OC(OC(C)=O)n1cc(C=O)c2ccccc21")
"> 100 µM"
>>> assay_value("CN(NC(=O)CCCl)C1=NCCCCN1")
"> 100 µM"
>>> assay_value("COc1cc(/C=C2\\N=C(c3ccccc3)N(c3nc4c(OC)ccc(OC)c4s3)C2=O)cc(OC)c1OC")
"> 100 µM"
>>> assay_value("N#CCc1ncc(-c2ccc(C(F)(F)F)cc2)c(NC2CCCCCC2)n1")
"> 10 µM"
>>> assay_value("CC(C)c1ccc(/C=C2\\CSCC3=C2NC(=S)NC3c2ccc(C(C)C)cc2)cc1 (stereo not given)")
"> 100 µM"
>>> assay_value("COC(=O)/C=C/c1cc(O)c2c(c1)[C@H](C(=O)OC)[C@@H](c1ccc(O)c(O)c1)O2")
"> 79.8 µM"
>>> assay_value("COc1cccc(/C=N/[N-]C(N)=O)c1[O-].[Ni+2].[OH3+].c1cnc2c(c1)ccc1cccnc12")
"> 100 µM"

###

Catalogue of GI50 readings, one per entry.
- Tested on: EKVX NSCLC
- test-method-notes: NCI tumour cell line growth inhibition, 48 h
endpoint-label: GI50

>>> assay_value("Cc1cc(C)c(O)c(CN(C)Cc2cc(Cl)cc(Cl)c2O)c1")
"4.52 µM"
>>> assay_value("COc1cc(/C=C2\\CN(C)C/C(=C\\c3cc(CN4CCCCC4)c(O)c(OC)c3)C2=O)cc(CN2CCCCC2)c1O")
"4.57 µM"
>>> assay_value("COc1ccc2nc3cc(Cl)ccc3c(NCCCNCCC(C)O)c2c1 (stereo not given)")
"0.473 µM"
>>> assay_value("Cc1ccc(-c2cc(C3=CC(=O)C=CC3=O)n(-c3ccc(S(N)(=O)=O)cc3)n2)cc1")
"47.8 µM"
>>> assay_value("COc1ccccc1C#Cc1ccccc1C#CCCCCCC#Cc1ccccc1C#Cc1ccccc1OC")
"> 100 µM"

###

- Tested on: SF-268 CNS
- test-method-notes: NCI tumour cell line growth inhibition, 48 h
Each entry below lists one item and its recorded TGI value.
endpoint-label: TGI

>>> assay_value("Cc1cc(Cc2cc(C)cc(C(C)(C)C)c2O)c(O)c(C(C)(C)C)c1")
"17.3 µM"
>>> assay_value("Cc1cn(CC2=NCC(C)(C)N2)c(=O)[nH]c1=O")
"> 100 µM"
>>> assay_value("Cc1ccc2c(O)c(O)cc(NC(C)CCCN)c2n1 (stereo not drawn)")
"66.2 µM"
>>> assay_value("NC(=S)Nc1[nH]c(=S)nc2c1SC1=N/C(=C\\c3ccco3)C(=O)N12")
"> 100 µM"
>>> assay_value("CC(C)NC(=O)OCc1c(COC(=O)NC(C)C)c(-c2ccc(Cl)cc2)n2c1CCC2")
"13.5 µM"
>>> assay_value("COC(=O)/C=C(/C(=O)OC)c1c(C)c(C)c2c(C)cc(C)cc(C)c1-2")
"> 100 µM"
>>> assay_value("Cc1cc(=O)oc2cc(OCc3c(F)cccc3Cl)ccc12")
"> 100 µM"
>>> assay_value("c1ccc2c(c1)CCc1cc3cc4c(nc3nc1-2)-c1ccccc1CC4")
"> 100 µM"
>>> assay_value("O=c1c2cc(I)ccc2nc(Sc2ncccc2[N+](=O)[O-])n1Cc1ccccc1")
"> 100 µM"
>>> assay_value("NC1=NC(c2ccc(Cl)cc2)C2=C(N1)/C(=C/c1ccc(Cl)cc1)CCC2 (stereo not drawn)")
"> 38.9 µM"
>>> assay_value("O=C(N/N=C/c1ccccc1O)C(=O)Nc1ccc(F)cc1")
"> 100 µM"
>>> assay_value("O=C(c1ccco1)c1c(C(F)(F)F)n([O-])c2ccccc2[n+]1=O")
"2.56 µM"
>>> assay_value("Cc1cc(Nc2ncnc3ccc(NC4=NC(C)(C)CO4)cc23)ccc1Oc1ccn2ncnc2c1")
"> 91.9 µM"
>>> assay_value("CCCCCCCCCCCCSC(=N)N")
"25.8 µM"
>>> assay_value("COc1ccc(C(=O)c2cc3c(OC)c(OC)c(OC)cc3[nH]2)cc1")
"> 100 µM"
>>> assay_value("CC(=O)CCCCO")
"> 100 µM"
>>> assay_value("O=C(O)c1ccc(N/C=C2\\C(=O)c3ccccc3OC2O)cc1O (stereo not drawn)")
"134 µg/mL"
>>> assay_value("CN(NC(=O)CCCl)C1=NCCCCN1")
"> 100 µM"
